- ASSAYED SYSTEM: Telomerase reverse transcriptase (Homo sapiens)
- Sequence (O14746 whole entry): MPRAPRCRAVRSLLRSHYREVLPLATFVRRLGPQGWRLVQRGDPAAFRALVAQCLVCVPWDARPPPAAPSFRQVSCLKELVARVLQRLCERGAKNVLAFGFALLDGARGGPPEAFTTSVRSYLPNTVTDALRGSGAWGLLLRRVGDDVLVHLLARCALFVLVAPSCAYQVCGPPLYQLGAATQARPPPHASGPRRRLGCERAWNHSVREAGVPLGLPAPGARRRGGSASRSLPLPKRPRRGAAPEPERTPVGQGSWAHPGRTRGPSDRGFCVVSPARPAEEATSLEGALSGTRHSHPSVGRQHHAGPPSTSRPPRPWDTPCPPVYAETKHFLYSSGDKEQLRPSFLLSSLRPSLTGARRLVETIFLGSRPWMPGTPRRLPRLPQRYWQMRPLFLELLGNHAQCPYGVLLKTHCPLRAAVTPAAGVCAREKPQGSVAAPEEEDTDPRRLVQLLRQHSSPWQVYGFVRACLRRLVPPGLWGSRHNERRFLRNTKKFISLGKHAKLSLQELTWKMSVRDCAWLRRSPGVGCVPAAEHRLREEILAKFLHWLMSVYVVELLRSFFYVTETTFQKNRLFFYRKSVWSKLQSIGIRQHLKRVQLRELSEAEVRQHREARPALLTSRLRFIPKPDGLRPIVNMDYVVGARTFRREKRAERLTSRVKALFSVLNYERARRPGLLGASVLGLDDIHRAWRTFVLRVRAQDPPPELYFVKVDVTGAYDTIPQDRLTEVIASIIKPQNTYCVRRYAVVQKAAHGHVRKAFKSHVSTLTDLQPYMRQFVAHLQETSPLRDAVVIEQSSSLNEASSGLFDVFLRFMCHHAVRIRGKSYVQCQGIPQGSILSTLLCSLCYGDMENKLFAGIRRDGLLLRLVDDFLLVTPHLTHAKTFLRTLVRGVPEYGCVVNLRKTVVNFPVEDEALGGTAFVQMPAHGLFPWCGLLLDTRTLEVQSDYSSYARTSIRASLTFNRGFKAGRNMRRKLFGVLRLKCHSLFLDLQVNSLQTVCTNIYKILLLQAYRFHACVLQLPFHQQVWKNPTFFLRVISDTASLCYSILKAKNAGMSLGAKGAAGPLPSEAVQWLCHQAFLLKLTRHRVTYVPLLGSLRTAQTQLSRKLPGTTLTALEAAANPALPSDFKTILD
- EXPERIMENT: Inhibition of telomerase in human COLO 205 cells by TRAP assay
- Type: cell-based
REPORTED PROPERTY: IC50 (µM)

Solved cases below.
{"ENTRY SMILES": "Cc1cn([C@H]2C[C@@H](n3cc(COc4ccc5c(c4)C=CS(=O)(=O)O5)nn3)[C@@H](CO)O2)c(=O)[nH]c1=O", "IC50 [µM]": 19}
{"ENTRY SMILES": "Cc1cn([C@H]2C[C@@H](n3cc(COC(=O)c4ccc(S(N)(=O)=O)cc4)nn3)[C@@H](CO)O2)c(=O)[nH]c1=O", "IC50 [µM]": 5.9}
{"ENTRY SMILES": "Cc1cn([C@H]2C[C@@H](n3cc(CNC(=O)Nc4cccc(S(N)(=O)=O)c4)nn3)[C@@H](CO)O2)c(=O)[nH]c1=O", "IC50 [µM]": 0.9}

a: Cc1cn([C@H]2C[C@@H](n3cc(COc4ccc5oc(=O)ccc5c4)nn3)[C@@H](CO)O2)c(=O)[nH]c1=O
b: Cc1cn([C@H]2C[C@@H](n3cc(COc4ccc(S(N)(=O)=O)cc4)nn3)[C@@H](CO)O2)c(=O)[nH]c1=O
Choose between a and b : whose measured IC50 value is numerically larger? Your answer should be the label of the entry you select. a
